# System: Pseudomonas aeruginosa ATCC 27853
# Type: cell-based
# Condition Label: Pseudomonas aeruginosa ATCC27853
Bridge positions count the residues as written; N and C are the ends. Square brackets hold non-standard residues; d marks the D form. Peptide text beside a SMILES is read from it. * marks the point of attachment. X1 = CC[C@H](C)CCCCC(=O)*; Octanoyl = CCCCCCCC(=O)*; dDap = NC[C@@H](N)C(=O)O; Dab = NCC[C@H](N)C(=O)O; Dap = NC[C@H](N)C(=O)O
Observed Property: MIC (µg/mL)
# value in µg/mL; strip the unit string

Recorded MIC, per entry:
{"columns": ["Molecule", "Unit Symbol", "MIC"],
 "data": [
  ["CCCCCCCC(=O)N[C@@H](CCN)C(=O)N[C@H](C(=O)N[C@H](CN)C(=O)N[C@H]1CCNC(=O)[C@H]([C@@H](C)O)NC(=O)[C@H](CCN)NC(=O)[C@H](CCN)NC(=O)[C@H](CC(C)C)NC(=O)[C@@H](Cc2ccccc2)NC(=O)[C@H](CCN)NC1=O)[C@@H](C)O [Compound 33] (Octanoyl-[Dab]T[dDap][Dab][Dab][dF]L[Dab][Dab]T; lactam 4-C)", "µg/mL", 0.03],
  ["CC[C@H](C)CCCCC(=O)N[C@@H](CCN)C(=O)N[C@H](C(=O)N[C@H](CO)C(=O)N[C@H]1CCNC(=O)[C@H]([C@@H](C)O)NC(=O)[C@H](CCN)NC(=O)[C@H](CCN)NC(=O)[C@H]([C@@H](C)O)NC(=O)[C@@H](Cc2ccccc2)NC(=O)[C@H](CN)NC1=O)[C@@H](C)O [Compound 61] (X1-[Dab]T[dS][Dab][Dap][dF]T[Dab][Dab]T; lactam 4-C)", "µg/mL", 64]
]}

Please look at the following molecule next.
Given item CCCCCCCC(=O)N[C@@H](CCN)C(=O)N[C@H](C(=O)N[C@@H](CN)C(=O)N[C@H]1CCNC(=O)[C@H]([C@@H](C)O)NC(=O)[C@H](CCN)NC(=O)[C@H](CCN)NC(=O)[C@H](CC(C)C)NC(=O)[C@@H](Cc2ccccc2)NC(=O)[C@H](CCN)NC1=O)[C@@H](C)O [Compound 38] (Octanoyl-[Dab]T[Dap][Dab][Dab][dF]L[Dab][Dab]T; lactam 4-C) , the value recorded as its MIC is 0.03

###

# Tested on: Acinetobacter baumannii ABA19-1
# Assay type: cell-based
# Condition Label: ABA19-1
# Protocol: The minimal inhibitory concentration (MIC) was determined by the broth microdilution method according to the recommended procedures of the Clinical and Laboratory Standards Institute (CLSI). An appropriate amount of the cyclic lipopeptide compounds prepared in Examples 1-120 and the reference standards were weighed and dissolved in sterile pure water. […]
Bridge positions count the residues as written; N and C are the ends. Square brackets hold non-standard residues; d marks the D form. Peptide text beside a SMILES is read from it. * marks the point of attachment. Heptanoyl(6-Me) = CC(C)CCCCC(=O)*; Nonanoyl = CCCCCCCCC(=O)*; dDap = NC[C@@H](N)C(=O)O; Dab = NCC[C@H](N)C(=O)O; Dap = NC[C@H](N)C(=O)O
Observed Property: MIC

{"columns": ["Compound", "Value Measured"],
 "data": [
  ["CC(C)CCCCC(=O)N[C@@H](CCN)C(=O)N[C@H](C(=O)N[C@H](CO)C(=O)N[C@H]1CCNC(=O)[C@H]([C@@H](C)O)NC(=O)[C@H](CCN)NC(=O)[C@H](CN)NC(=O)[C@H]([C@@H](C)O)NC(=O)[C@@H](Cc2ccccc2)NC(=O)[C@H](CCN)NC1=O)[C@@H](C)O [Compound 72] ({Heptanoyl(6-Me)}-[Dab]T[dS][Dab][Dab][dF]T[Dap][Dab]T; lactam 4-C)", "0.06 µg/mL"]
]}

Please look at the following compound next.
Given item CCCCCCCCC(=O)N[C@@H](CCN)C(=O)N[C@H](C(=O)N[C@H](CN)C(=O)N[C@H]1CCNC(=O)[C@H]([C@@H](C)O)NC(=O)[C@H](CCN)NC(=O)[C@H](CCN)NC(=O)[C@H]([C@@H](C)O)NC(=O)[C@@H](Cc2ccccc2)NC(=O)[C@H](CCN)NC1=O)[C@@H](C)O [Compound 5] (Nonanoyl-[Dab]T[dDap][Dab][Dab][dF]T[Dab][Dab]T; lactam 4-C) , the value recorded as its MIC is 0.06 µg/mL

Measured values drawn from patent EP4725957A1 for this set.
